Sigma non-opioid intracellular receptor 1 (Homo sapiens, UniProt Q99720) Ki data
Sequence (Q99720 whole entry): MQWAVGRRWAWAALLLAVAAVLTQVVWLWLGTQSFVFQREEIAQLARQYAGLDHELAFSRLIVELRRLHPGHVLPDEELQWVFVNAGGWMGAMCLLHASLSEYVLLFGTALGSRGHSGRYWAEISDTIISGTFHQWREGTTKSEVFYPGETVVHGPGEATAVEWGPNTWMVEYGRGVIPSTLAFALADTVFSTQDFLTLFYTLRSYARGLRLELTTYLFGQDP

INSERT INTO assay_data (compound, assay_metric, result) VALUES
  ('O=c1[nH]c2nccn2c2c1ncn2C1CC(O)C(COP(=O)(O)OP(=O)(O)OP(=O)(O)O)O1 (centres undefined)', 'Ki', '42 nM');

Fill in: Ki of C#CCN(C)CCCOc1ccc(Cl)cc1Cl is ___
8.7 nM

Queued: COc1ccc2c(c1)C13CCCCC1C(C2)N(C)CC3 (centres undefined)
521 nM

Queued: CCN(CC)CCOCCOC(=O)C1(c2ccccc2)CCCC1
10.4 nM
